test system: MDA-MB-231 multicell spheroids, viability; assay: Anticancer human tumor MDA-MB-231 cell line growth inhibition [PI3K]; conditions: second compound 0.1 µM; first compound 3.16 µM; stronger effect = lower value;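 further: spheroids exposed to agents for seven days before reading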;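 on viability, T/C: percent of vehicle control luminescence with DMSO treated spheroids as 100%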
readout label: viability, T/C (%)
Only the number, expressed in %, is required.

compound	readout label	result number
C=CC(=O)N1CCN(c2nc(=O)n(-c3c(C)ccnc3C(C)C)c3nc(-c4c(O)cccc4F)c(F)cc23)C(C)C1 (stereo not drawn) + CC(Nc1ncnc2nc[nH]c12)c1cc2cccc(Cl)c2c(=O)n1-c1ccccc1	viability, T/C	131
CC1(C)CCC(Nc2ncc(C(F)(F)F)c(-c3c[nH]c4c(P(C)(C)=O)c(C#N)ccc34)n2)CN1 (stereo not drawn) + CC(Nc1ccc2c(c1)OCCn1cc(N3C(=O)OCC3C(F)F)nc1-2)C(N)=O	viability, T/C	36.2

Below: the item to evaluate.
Suppose we examine the compound C[C@@H](NC(=O)c1ncnc(N)c1Cl)c1ncc(C(=O)Nc2cc(C(F)(F)F)c(Cl)cn2)s1 + CC(Nc1ccc2c(c1)OCCn1cc(N3C(=O)OCC3C(F)F)nc1-2)C(N)=O ; what viability, T/C value has been reported?
48.3

* * *

tested on: MDA-MB-231 multicell spheroids, viability; assay: Anticancer human tumor MDA-MB-231 cell line growth inhibition [PI3K]; details: second compound 1 µM; first compound 0.1 µM; stronger effect = lower value;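 further: spheroids exposed to agents for seven days before reading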;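 on viability, T/C: percent of vehicle control luminescence with DMSO treated spheroids as 100%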
readout label: viability, T/C (%)
Only the number, expressed in %, is required.

Before answering, review these 6 worked examples.
compound	viability, T/C / %
C[C@@H](NC(=O)c1ncnc(N)c1Cl)c1ncc(C(=O)Nc2cc(C(F)(F)F)c(Cl)cn2)s1 + COc1c(OCCCN2CCOCC2)ccc2c3n(c(=NC(=O)c4cnc(N)nc4)nc12)CCN3	25.4
CNC(=O)c1ccc(N2C(=S)N(c3ccc(C#N)c(C(F)(F)F)c3)C(=O)C2(C)C)cc1F + CC(Nc1ncnc2nc[nH]c12)c1cc2cccc(Cl)c2c(=O)n1-c1ccccc1	84.1
Cn1ncnc1[C@H]1c2n[nH]c(=O)c3cc(F)cc(c23)N[C@@H]1c1ccc(F)cc1 + COc1c(OCCCN2CCOCC2)ccc2c3n(c(=NC(=O)c4cnc(N)nc4)nc12)CCN3	22.4
CC(=O)c1c(C)c2cnc(Nc3ccc(N4CCNCC4)cn3)nc2n(C2CCCC2)c1=O + Cc1nc(NC(=O)N2CCCC2C(N)=O)sc1-c1ccnc(C(C)(C)C(F)(F)F)c1	29.6
CC1(C)CCC(Nc2ncc(C(F)(F)F)c(-c3c[nH]c4c(P(C)(C)=O)c(C#N)ccc34)n2)CN1 (configuration not stated) + Cc1nc(NC(=O)N2CCCC2C(N)=O)sc1-c1ccnc(C(C)(C)C(F)(F)F)c1	43.8
C#Cc1c(F)ccc2cc(O)cc(-c3ncc4c(N5CC6CCC(C5)N6)nc(OCC56CCCN5CC(F)C6)nc4c3F)c12 (configuration not stated) + CC(Nc1ccc2c(c1)OCCn1cc(N3C(=O)OCC3C(F)F)nc1-2)C(N)=O	54.4

Suppose we examine the compound CNC(=O)c1ccc(N2C(=S)N(c3ccc(C#N)c(C(F)(F)F)c3)C(=O)C2(C)C)cc1F + Cc1nc(NC(=O)N2CCCC2C(N)=O)sc1-c1ccnc(C(C)(C)C(F)(F)F)c1 ; what viability, T/C value has been reported?
69.8

Suppose we examine the compound CNC(=O)c1ccc(N2C(=S)N(c3ccc(C#N)c(C(F)(F)F)c3)C(=O)C2(C)C)cc1F + CC(Nc1ccc2c(c1)OCCn1cc(N3C(=O)OCC3C(F)F)nc1-2)C(N)=O ; what viability, T/C value has been reported?
62.4

Suppose we examine the compound Cn1nccc1Nc1nccc(-c2ccn(C(CO)c3ccc(Cl)c(F)c3)c(=O)c2)n1 (configuration not stated) + COc1c(OCCCN2CCOCC2)ccc2c3n(c(=NC(=O)c4cnc(N)nc4)nc12)CCN3 ; what viability, T/C value has been reported?
16.8

Suppose we examine the compound C[C@@H](NC(=O)c1ncnc(N)c1Cl)c1ncc(C(=O)Nc2cc(C(F)(F)F)c(Cl)cn2)s1 + CC(Nc1ncnc2nc[nH]c12)c1cc2cccc(Cl)c2c(=O)n1-c1ccccc1 ; what viability, T/C value has been reported?
101

Suppose we examine the compound Cn1ncc(Cl)c1-c1cc(C(=O)NC(CN)Cc2cccc(F)c2)sc1Cl (configuration not stated) + Cc1nc(NC(=O)N2CCCC2C(N)=O)sc1-c1ccnc(C(C)(C)C(F)(F)F)c1 ; what viability, T/C value has been reported?
72.3

Suppose we examine the compound Cn1nccc1Nc1nccc(-c2ccn(C(CO)c3ccc(Cl)c(F)c3)c(=O)c2)n1 (configuration not stated) + CC(Nc1ncnc2nc[nH]c12)c1cc2cccc(Cl)c2c(=O)n1-c1ccccc1 ; what viability, T/C value has been reported?
50.1

* * *

tested on: MDA-MB-231 multicell spheroids, viability; experiment: Anticancer human tumor MDA-MB-231 cell line growth inhibition [PI3K]; conditions: second compound 0.1 µM; first compound 0.1 µM; stronger effect = lower value;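 further: spheroids exposed to agents for seven days before reading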;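 on viability, T/C: percent of vehicle control luminescence with DMSO treated spheroids as 100%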
readout label: viability, T/C (%)
Only the number, expressed in %, is required.

Before answering, review these 3 worked examples.
molecule	assay system	unit text	viability, T/C
CC(C)n1nc(-c2ccc3oc(N)nc3c2)c2c(N)ncnc21 + Cc1nc(NC(=O)N2CCCC2C(N)=O)sc1-c1ccnc(C(C)(C)C(F)(F)F)c1	MDA-MB-231 multicell spheroids, viability	%	31.3
Cn1ncnc1[C@H]1c2n[nH]c(=O)c3cc(F)cc(c23)N[C@@H]1c1ccc(F)cc1 + Cc1nc(NC(=O)N2CCCC2C(N)=O)sc1-c1ccnc(C(C)(C)C(F)(F)F)c1	MDA-MB-231 multicell spheroids, viability	%	63.2
C=CC(=O)N1CCN(c2nc(=O)n(-c3c(C)ccnc3C(C)C)c3nc(-c4c(O)cccc4F)c(F)cc23)C(C)C1 (centres undefined) + CC(Nc1ncnc2nc[nH]c12)c1cc2cccc(Cl)c2c(=O)n1-c1ccccc1	MDA-MB-231 multicell spheroids, viability	%	103

Suppose we examine the molecule CC(Cn1ccc(-c2ccc(C#N)c(Cl)c2)n1)NC(=O)c1cc(C(C)O)[nH]n1 (centres undefined) + Cc1nc(NC(=O)N2CCCC2C(N)=O)sc1-c1ccnc(C(C)(C)C(F)(F)F)c1 ; what viability, T/C value has been reported?
78.8

* * *

tested on: MDA-MB-231 multicell spheroids, viability; assay: Anticancer human tumor MDA-MB-231 cell line growth inhibition [PI3K]; conditions: second compound 0.0316 µM; first compound 0.1 µM; stronger effect = lower value;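 further: spheroids exposed to agents for seven days before reading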;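 on viability, T/C: percent of vehicle control luminescence with DMSO treated spheroids as 100%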
Recorded viability, T/C by entry
Only the number, expressed in %, is required.

Value wanted: viability, T/C (MDA-MB-231 multicell spheroids, viability) of entry CC(Cn1ccc(-c2ccc(C#N)c(Cl)c2)n1)NC(=O)c1cc(C(C)O)[nH]n1 (stereo not given) + CC(Nc1ccc2c(c1)OCCn1cc(N3C(=O)OCC3C(F)F)nc1-2)C(N)=O
81.7

Value wanted: viability, T/C (MDA-MB-231 multicell spheroids, viability) of entry CC(=O)c1c(C)c2cnc(Nc3ccc(N4CCNCC4)cn3)nc2n(C2CCCC2)c1=O + CC(Nc1ncnc2nc[nH]c12)c1cc2cccc(Cl)c2c(=O)n1-c1ccccc1
53.2

Value wanted: viability, T/C (MDA-MB-231 multicell spheroids, viability) of entry CCN1CCN(Cc2ccc(Nc3ncc(F)c(-c4cc(F)c5nc(C)n(C(C)C)c5c4)n3)nc2)CC1 + Cc1nc(NC(=O)N2CCCC2C(N)=O)sc1-c1ccnc(C(C)(C)C(F)(F)F)c1
54.2

Value wanted: viability, T/C (MDA-MB-231 multicell spheroids, viability) of entry Cn1ncc(Cl)c1-c1cc(C(=O)NC(CN)Cc2cccc(F)c2)sc1Cl (stereo not given) + CC(Nc1ccc2c(c1)OCCn1cc(N3C(=O)OCC3C(F)F)nc1-2)C(N)=O
75.2

Value wanted: viability, T/C (MDA-MB-231 multicell spheroids, viability) of entry CC(=O)c1c(C)c2cnc(Nc3ccc(N4CCNCC4)cn3)nc2n(C2CCCC2)c1=O + CC(Nc1ccc2c(c1)OCCn1cc(N3C(=O)OCC3C(F)F)nc1-2)C(N)=O
31.6

* * *

Recorded IC50 by entry
test system: MDA-MB-231 multicell spheroids, viability; assay: Anticancer human tumor MDA-MB-231 cell line growth inhibition [PI3K]; settings: curve of compound;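 further: spheroids exposed to agents for seven days before reading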

Before answering, review these 6 worked examples.
>>> df
                                   compound                      result
0  Cn1ncnc1[C@H]1c2n[nH]c(=O)c3cc(F)cc(c23)N[C@@H]1c1ccc(F)cc1                    > 0.1 µM
1  C[C@@H](NC(=O)c1ncnc(N)c1Cl)c1ncc(C(=O)Nc2cc(C(F)(F)F)c(Cl)cn2)s1                     > 10 µM
2  C=CC(=O)N1CCN(c2nc(=O)n(-c3c(C)ccnc3C(C)C)c3nc(-c4c(O)cccc4F)c(F)cc23)C(C)C1 (stereo not drawn)                     > 10 µM
3  CC(C)n1nc(-c2ccc3oc(N)nc3c2)c2c(N)ncnc21  66.7 nM [middle of 4 runs]
4  Cn1cnc2c(F)c(Nc3ccc(Br)cc3Cl)c(C(=O)NOCCO)cc21   431 nM [middle of 4 runs]
5  CCCS(=O)(=O)Nc1ccc(F)c(C(=O)c2c[nH]c3ncc(-c4ccc(Cl)cc4)cc23)c1F  5.82 µM [middle of 4 runs]

Suppose we examine the compound CNC(=O)c1ccc(N2C(=S)N(c3ccc(C#N)c(C(F)(F)F)c3)C(=O)C2(C)C)cc1F ; what IC50 value has been reported?
> 10 µM

Suppose we examine the compound Cn1nccc1Nc1nccc(-c2ccn(C(CO)c3ccc(Cl)c(F)c3)c(=O)c2)n1 (stereo not drawn) ; what IC50 value has been reported?
905 nM [middle of 4 runs]
